tgt: δ-ALA-D (Mus musculus, UniProt P10518)
Sequence (P10518 1-330): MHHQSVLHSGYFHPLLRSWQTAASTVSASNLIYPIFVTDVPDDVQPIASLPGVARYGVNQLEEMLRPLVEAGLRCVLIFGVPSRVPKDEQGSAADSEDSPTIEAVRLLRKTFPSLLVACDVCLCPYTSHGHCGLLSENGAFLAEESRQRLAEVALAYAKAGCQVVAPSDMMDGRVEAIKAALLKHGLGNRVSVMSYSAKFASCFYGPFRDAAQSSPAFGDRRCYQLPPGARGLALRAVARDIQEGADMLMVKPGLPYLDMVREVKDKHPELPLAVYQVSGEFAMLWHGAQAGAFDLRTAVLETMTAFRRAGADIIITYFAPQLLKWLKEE
method notes: δ-ALA-D activity in tissue supernatants (in vitro toxicity)
setup conditions: Kidney, 500 μM; mean ± SD (n = 3)
Reported δ-ALA-D activity values for a set of compounds
Note: unit nmol PBG.mg.tn‐1.h‐1 is implicit; provide only the numeric part.

# example entries with known answers
Specify δ-ALA-D activity for CC(C)=CCC[C@@H](C)C(/C=N/O)[Se]c1ccccc1 (stereo partly shown) and stop.
0.61

Specify δ-ALA-D activity for CC(C)=CCCC(C)C/C=[N+](\C)[O-] (stereo not shown) and stop.
0.72

Specify δ-ALA-D activity for CC(C)=CCCC(C)(C/C=[N+](\C)[O-])Sc1ccccc1 (stereo not shown) and stop.
0.90

Continuing:
Specify δ-ALA-D activity for CC(C)=CCCC(C)C(/C=[N+](\C)[O-])Sc1ccccc1 (stereo not shown) and stop.
0.90

====

Tested on: Bacillus cereus ATCC 11778
method notes: MIC and MBC, macro dilution tube method
Type: cell-based
setup conditions: B. mereus (so in the source), 10^5 CFU.mL^−1
property name: MBC (mM.mL^−1)
Note: unit mM.mL^−1 is implicit; provide only the numeric part.

Specify MBC for CC(C)=CCCC(C)C(/C=[N+](\C)[O-])Sc1ccccc1 (stereo not shown) and stop.
0.59

For the next question, use this compound.
Specify MBC for CC(C)=CCCC(C)(C/C=[N+](\C)[O-])Sc1ccccc1 (stereo not shown) and stop.
0.69

====

Tested on: Escherichia coli O157: H7 NCTC 12900
method notes: agar disk diffusion test
Assay type: cell-based
setup conditions: E. coli O157:H7, 1.0 × 10^8 CFU.mL^−1; 20 μL compound diluted in DMSO (1:1) per 6 mm disc; streptomycin 10 µg; mean of two repetitions
Reported Inhibition Zone values for a set of molecules

# example entries with known answers
Report value: Inhibition Zone, system: Escherichia coli O157: H7 NCTC 12900, molecule: CC(C)=CCC[C@@H](C)C(/C=N/O)[Se]c1ccccc1 (stereo partly shown) [compound 10]
9 mm

Report value: Inhibition Zone, system: Escherichia coli O157: H7 NCTC 12900, molecule: CC(C)=CCCC(C)C(/C=[N+](\C)[O-])Sc1ccccc1 (stereo not shown) [5a]
11 mm

Report value: Inhibition Zone, system: Escherichia coli O157: H7 NCTC 12900, molecule: CC(C)=CCCC(C)(C/C=[N+](\C)[O-])Sc1ccccc1 (stereo not shown) [5c]
21.5 mm

For the next question, use this molecule.
Report value: Inhibition Zone, system: Escherichia coli O157: H7 NCTC 12900, molecule: CC(C)=CCCC(C)C/C=[N+](\C)[O-] (stereo not shown) [5d]
22.5 mm

====

tgt: δ-ALA-D (Mus musculus, UniProt P10518)
Sequence (P10518 1-330): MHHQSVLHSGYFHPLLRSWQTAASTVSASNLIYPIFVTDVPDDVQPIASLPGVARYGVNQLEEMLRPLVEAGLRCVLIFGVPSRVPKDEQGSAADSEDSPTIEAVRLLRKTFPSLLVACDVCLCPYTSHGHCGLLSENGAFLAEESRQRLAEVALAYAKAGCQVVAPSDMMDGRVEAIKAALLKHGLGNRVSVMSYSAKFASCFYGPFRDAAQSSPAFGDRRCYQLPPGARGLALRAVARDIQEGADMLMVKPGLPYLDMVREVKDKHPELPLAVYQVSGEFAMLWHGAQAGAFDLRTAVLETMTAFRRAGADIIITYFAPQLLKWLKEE
method notes: δ-ALA-D activity in tissue supernatants (in vitro toxicity)
setup conditions: Brain, 10 μM; mean ± SD (n = 3)
property name: δ-ALA-D activity (nmol PBG.mg.tn‐1.h‐1)
Note: unit nmol PBG.mg.tn‐1.h‐1 is implicit; provide only the numeric part.

Specify δ-ALA-D activity for CC(C)=CCCC(C)C/C=[N+](\C)[O-] (stereo not shown) [5d] and stop.
0.29

Specify δ-ALA-D activity for CC(C)=CCC[C@@H](C)C(/C=N/O)[Se]c1ccccc1 (stereo partly shown) [compound 10] and stop.
0.30

Specify δ-ALA-D activity for CC(C)=CCCC(C)(C/C=[N+](\C)[O-])Sc1ccccc1 (stereo not shown) [5c] and stop.
0.30

For the next question, use this compound.
Specify δ-ALA-D activity for CC(C)=CCCC(C)C(/C=[N+](\C)[O-])Sc1ccccc1 (stereo not shown) [5a] and stop.
0.44

====

tgt: δ-ALA-D (Mus musculus)
method notes: δ-ALA-D activity in tissue supernatants (in vitro toxicity)
setup conditions: Liver, 10 μM; mean ± SD (n = 3)
property name: δ-ALA-D activity (nmol PBG.mg.tn‐1.h‐1)
Note: unit nmol PBG.mg.tn‐1.h‐1 is implicit; provide only the numeric part.

Specify δ-ALA-D activity for CC(C)=CCCC(C)(C/C=[N+](\C)[O-])Sc1ccccc1 (stereo not shown) [5c] and stop.
4.63

Continuing:
Specify δ-ALA-D activity for CC(C)=CCCC(C)C/C=[N+](\C)[O-] (stereo not shown) [5d] and stop.
4.50

Specify δ-ALA-D activity for CC(C)=CCC[C@@H](C)C(/C=N/O)[Se]c1ccccc1 (stereo partly shown) [compound 10] and stop.
4.90

Specify δ-ALA-D activity for CC(C)=CCCC(C)C(/C=[N+](\C)[O-])Sc1ccccc1 (stereo not shown) [5a] and stop.
4.99

====

Reported δ-ALA-D activity values for a set of compounds
tgt: UniProt P10518
Sequence (P10518 1-330): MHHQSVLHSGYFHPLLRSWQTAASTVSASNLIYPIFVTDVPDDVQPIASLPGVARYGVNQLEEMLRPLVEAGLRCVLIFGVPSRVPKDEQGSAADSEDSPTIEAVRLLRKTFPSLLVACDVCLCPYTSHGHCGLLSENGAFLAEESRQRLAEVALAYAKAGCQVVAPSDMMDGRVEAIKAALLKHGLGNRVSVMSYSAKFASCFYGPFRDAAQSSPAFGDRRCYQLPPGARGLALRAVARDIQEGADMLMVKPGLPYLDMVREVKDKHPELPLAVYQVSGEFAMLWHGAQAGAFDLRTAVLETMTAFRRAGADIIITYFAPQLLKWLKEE
method notes: δ-ALA-D activity in tissue supernatants (in vitro toxicity)
setup conditions: Liver, 100 μM; mean ± SD (n = 3)
Note: unit nmol PBG.mg.tn‐1.h‐1 is implicit; provide only the numeric part.

Specify δ-ALA-D activity for CC(C)=CCCC(C)C(/C=[N+](\C)[O-])Sc1ccccc1 (stereo not shown) and stop.
4.71

Specify δ-ALA-D activity for CC(C)=CCCC(C)(C/C=[N+](\C)[O-])Sc1ccccc1 (stereo not shown) and stop.
4.12

Specify δ-ALA-D activity for CC(C)=CCC[C@@H](C)C(/C=N/O)[Se]c1ccccc1 (stereo partly shown) and stop.
4.57

Specify δ-ALA-D activity for CC(C)=CCCC(C)C/C=[N+](\C)[O-] (stereo not shown) and stop.
3.54

====

tgt: δ-ALA-D (Mus musculus)
method notes: δ-ALA-D activity in tissue supernatants (in vitro toxicity)
setup conditions: Kidney, 50 μM; mean ± SD (n = 3)
Reported δ-ALA-D activity values for a set of compounds
Note: unit nmol PBG.mg.tn‐1.h‐1 is implicit; provide only the numeric part.

# example entries with known answers
Specify δ-ALA-D activity for CC(C)=CCC[C@@H](C)C(/C=N/O)[Se]c1ccccc1 (stereo partly shown) [compound 10] and stop.
0.95

Specify δ-ALA-D activity for CC(C)=CCCC(C)C/C=[N+](\C)[O-] (stereo not shown) [5d] and stop.
0.96

Specify δ-ALA-D activity for CC(C)=CCCC(C)C(/C=[N+](\C)[O-])Sc1ccccc1 (stereo not shown) [5a] and stop.
1.17

Continuing:
Specify δ-ALA-D activity for CC(C)=CCCC(C)(C/C=[N+](\C)[O-])Sc1ccccc1 (stereo not shown) [5c] and stop.
1.02

====

tgt: δ-ALA-D (Mus musculus, UniProt P10518)
method notes: δ-ALA-D activity in tissue supernatants (in vitro toxicity)
setup conditions: Kidney, 10 μM; mean ± SD (n = 3)
Reported δ-ALA-D activity values for a set of molecules
Note: unit nmol PBG.mg.tn‐1.h‐1 is implicit; provide only the numeric part.

# example entries with known answers
Specify δ-ALA-D activity for CC(C)=CCCC(C)C/C=[N+](\C)[O-] (stereo not shown) [5d] and stop.
1.02

Specify δ-ALA-D activity for CC(C)=CCCC(C)(C/C=[N+](\C)[O-])Sc1ccccc1 (stereo not shown) [5c] and stop.
1.10

Continuing:
Specify δ-ALA-D activity for CC(C)=CCC[C@@H](C)C(/C=N/O)[Se]c1ccccc1 (stereo partly shown) [compound 10] and stop.
0.96

Specify δ-ALA-D activity for CC(C)=CCCC(C)C(/C=[N+](\C)[O-])Sc1ccccc1 (stereo not shown) [5a] and stop.
1.17

Reference source for all entries: paper PMC5590075
